Just for reference, patent US20030207812A1 is where these values come from.

Exercise: state measured IC50 for each of the compounds provided.
# Target of assay: CD45 (Homo sapiens)
# Construct: incubating the cytosolic portion of CD45 with the compounds and p-nitrophenyl phosphate (pNPP); purchased BIOMOL (Plymouth Meeting, Pa.)
# Sequence (P08575 599-1306 limits assumed): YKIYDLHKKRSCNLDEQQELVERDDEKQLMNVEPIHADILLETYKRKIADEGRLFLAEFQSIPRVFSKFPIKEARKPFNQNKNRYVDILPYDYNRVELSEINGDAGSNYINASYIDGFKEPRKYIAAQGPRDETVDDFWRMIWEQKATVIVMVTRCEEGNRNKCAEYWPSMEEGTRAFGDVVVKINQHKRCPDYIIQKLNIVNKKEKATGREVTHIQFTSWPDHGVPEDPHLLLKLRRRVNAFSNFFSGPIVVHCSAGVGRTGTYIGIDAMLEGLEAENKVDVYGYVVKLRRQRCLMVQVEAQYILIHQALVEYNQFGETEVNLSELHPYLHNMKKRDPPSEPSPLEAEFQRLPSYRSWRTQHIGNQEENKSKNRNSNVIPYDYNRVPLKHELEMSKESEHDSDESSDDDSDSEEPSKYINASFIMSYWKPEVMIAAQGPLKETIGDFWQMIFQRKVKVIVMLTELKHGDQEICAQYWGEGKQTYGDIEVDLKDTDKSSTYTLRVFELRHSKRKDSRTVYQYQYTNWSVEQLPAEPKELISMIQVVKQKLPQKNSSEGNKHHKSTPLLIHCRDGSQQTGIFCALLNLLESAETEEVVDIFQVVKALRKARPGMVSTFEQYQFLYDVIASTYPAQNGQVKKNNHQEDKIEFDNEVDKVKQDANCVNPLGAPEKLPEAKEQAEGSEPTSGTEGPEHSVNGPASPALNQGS
# Assay: Phosphatase assay using pNPP as substrate
# Format: biochemical
# Stated conditions: pH 7; read-out: pNPP IC50
Where a SMILES comes first, the peptide text is derived from it. The star is where a group is joined. Phenanthrenequinone2carbonyl = O=C1C(=O)c2cc(C(=O)*)ccc2-c2ccccc21; 3Phenanthroyl(9,10-dioxo) = O=C1C(=O)c2ccc(C(=O)*)cc2-c2ccccc21
Give bare numbers, in nM.

Consider the worked cases shown below.
Compound	Target of assay	IC50 (nM)
N=C(N)NCCC[C@H](NC(=O)c1ccc2c(c1)C(=O)C(=O)c1ccccc1-2)C(=O)N[C@@H](CCCNC(=N)N)C(=O)N1CCC[C@H]1C(=O)N[C@@H](CCCNC(=N)N)C(=O)NCC(=O)O [Example 57] (Phenanthrenequinone2carbonyl-RRPRG-OH)	CD45 (Homo sapiens)	1300
NC(=O)CC[C@H](NC(=O)c1ccc2c(c1)-c1ccccc1C(=O)C2=O)C(=O)N[C@@H](CCC(N)=O)C(=O)N1CCC[C@H]1C(=O)N[C@@H](CCC(N)=O)C(=O)N1CCC[C@H]1C(=O)O [Example 26] ({3Phenanthroyl(9,10-dioxo)}-QQPQP-OH)	CD45 (Homo sapiens)	700
N=C(N)NCCC[C@H](NC(=O)[C@@H]1CCCN1C(=O)[C@H](CCCNC(=N)N)NC(=O)CNC(=O)c1ccc2c(c1)C(=O)C(=O)c1ccccc1-2)C(=O)NCC(=O)O [Example 55] (Phenanthrenequinone2carbonyl-GRPRG-OH)	CD45 (Homo sapiens)	1400

Report IC50 for every entry below.
1. O=C1C(=O)c2ccccc2-c2ccccc21
2. O=C(O)CC[C@H](NC(=O)[C@@H]1CCCN1C(=O)CNC(=O)CNC(=O)c1ccc2c(c1)C(=O)C(=O)c1ccccc1-2)C(=O)NCC(=O)O [Example 40] (Phenanthrenequinone2carbonyl-GGPEG-OH)

[reply]
1: 700; 2: 600
